// data source = PubChem BioAssay AID624129

// reported pIC50 per item
molecular target: UniProt:P35414; experiment: potency against CXCR6 with APJ panel – cell-based, beta-arrestin, DiscoveRx, uHTS hits, dose response (AID 624129); conditions: CXCR6 beta-arrestin (DiscoveRx) antagonist cell assay, APJ, run 3, dose range 1
pIC50 is a log-scale quantity: -log10 of the concentration expressed in molar.

Worked cases, answers included:
1. CN(C)c1nc(=NCc2cccs2)ss1 | 5.44
2. COc1cc2c(cc1OC)C1(CCCC1)CNC2c1cccc([N+](=O)[O-])c1 (stereo unspecified) | 4.61
3. Cc1ccc2c(C)ccc(O)c2n1 | 5.20

**Q:** Item CC(C)c1ccc(O)c(NC(=S)NC(=O)c2cccnc2)c1 has what recorded pIC50?
**A:** 4.98

**Q:** Item CC(=O)OCCCNc1cc(Sc2ccc(Cl)cc2)c2nonc2c1[N+](=O)[O-] has what recorded pIC50?
**A:** 5.34

**Q:** Item C/C(=N\NC(=O)C(c1ccccc1)c1ccccc1)c1ccccn1 has what recorded pIC50?
**A:** 4.71

* * *

target: C-C chemokine receptor type 6 (Homo sapiens); test: potency against CXCR6 with APJ panel – cell-based, beta-arrestin, DiscoveRx, uHTS hits, dose response (AID 624129); conditions: CXCR6 beta-arrestin (DiscoveRx) antagonist cell assay, CCR6, dose range 1, mean IC50 across replicates
measurement-label: IC50 (µM)
Answer in µM, number only, no unit symbol.

1. O=C(/C=C/c1cccc([N+](=O)[O-])c1)c1ccc([N+](=O)[O-])o1 | 20.8
2. CN(C)c1nc(=NCc2cccs2)ss1 | 2.37

**Q:** Item C=C1C(=O)C23C(O)C1CCC2C12CCCC(C)(COC(C)=O)C1C(O)C3(O)OC2 (centres undefined) has what recorded IC50?
**A:** 5.59

* * *

// reported IC50 per item
target: C-X-C chemokine receptor type 6 (Homo sapiens) (UniProt O00574); test: potency against CXCR6 with APJ panel – cell-based, beta-arrestin, DiscoveRx, uHTS hits, dose response (AID 624129); settings: CXCR6 beta-arrestin (DiscoveRx) antagonist cell assay, CXCR6, run 2, dose range 2
Sequence (O00574 whole entry, looked up): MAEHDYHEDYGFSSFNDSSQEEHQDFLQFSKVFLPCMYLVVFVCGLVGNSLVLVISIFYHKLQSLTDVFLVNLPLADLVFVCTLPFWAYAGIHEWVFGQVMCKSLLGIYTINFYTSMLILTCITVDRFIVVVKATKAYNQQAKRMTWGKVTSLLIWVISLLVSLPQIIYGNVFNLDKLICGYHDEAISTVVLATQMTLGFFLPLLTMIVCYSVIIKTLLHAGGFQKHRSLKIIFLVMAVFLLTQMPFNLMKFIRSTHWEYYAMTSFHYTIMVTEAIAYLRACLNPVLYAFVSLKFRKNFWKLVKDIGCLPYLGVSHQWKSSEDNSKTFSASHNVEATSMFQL
Answer in µM, number only, no unit symbol.

1. CCOC(=O)C1CCCN(c2c(C(=O)c3ccccc3)cnc3ccc(OC)cc23)C1 (stereo not drawn) | 10.9
2. N#Cc1c([N+](=O)[O-])cc([N+](=O)[O-])cc1S(=O)(=O)Cc1ccccc1 | 12.6

Now, please, on to the next molecule.
**Q:** Item CCc1ccccc1OCC(=O)Nc1nc(-c2cccnc2)cs1 has what recorded IC50?
**A:** 8.73

* * *

biological target: Apelin receptor (Homo sapiens); assay: potency against CXCR6 with APJ panel – cell-based, beta-arrestin, DiscoveRx, uHTS hits, dose response (AID 624129); conditions: CXCR6 beta-arrestin (DiscoveRx) antagonist cell assay, APJ, run 3, dose range 1
pIC50: −log10 of the molar value.
Each entry gets label 0 if its pIC50 stays under 5, and label 1 if its pIC50 is 5 or above.

Solved cases below.
1. CC(=O)OCCCNc1cc(Sc2ccc(C)cc2)c2nonc2c1[N+](=O)[O-] | label 0
2. O=C1C=CC(=O)N1c1ccccc1N1C(=O)C=CC1=O | label 0
3. CC(=O)OCCCNc1cc(Sc2nc3ccccc3s2)c2nonc2c1[N+](=O)[O-] | label 0
4. C=C1C(=O)c2sccc2C(c2ccc(OC)c(OC)c2)C1COC(C)=O (stereo not drawn) | label 1
5. Cc1cc(C)c2c(=O)n(CC(=O)Nc3cccc(Cl)c3C)sc2n1 | label 1
6. COC(=O)[C@@H]1[C@@H](C#N)C2(c3ccccc3-c3ccccc32)N(c2ccc(Cl)cc2)N1C#N | label 0

**Q:** Determine whether measured pIC50 meets or exceeds 5 for Cc1ccc(S(=O)(=O)Nc2cccc3cccnc23)cc1
**A:** label 0

**Q:** Determine whether measured pIC50 meets or exceeds 5 for CC(=O)/C(=N\Nc1ccc(Cl)cc1Cl)Sc1cccc2cccnc12
**A:** label 1

**Q:** Determine whether measured pIC50 meets or exceeds 5 for Cc1ccc(CN2C(=O)C(Cc3ccccc3)Nc3ncnc(N4CCN(c5ccccc5)CC4)c32)cc1 (stereo not drawn)
**A:** label 1

**Q:** Determine whether measured pIC50 meets or exceeds 5 for O=C(Nc1nc2c(F)cc(F)cc2s1)c1ccccn1
**A:** label 0

**Q:** Determine whether measured pIC50 meets or exceeds 5 for CCC(=O)OCCNc1cc(Sc2nc3ccccc3s2)c2nonc2c1[N+](=O)[O-]
**A:** label 0

**Q:** Determine whether measured pIC50 meets or exceeds 5 for Cc1ccc(C(=O)CNc2ccc(F)cc2)cc1
**A:** label 1

**Q:** Determine whether measured pIC50 meets or exceeds 5 for O=[N+]([O-])c1cc2oc3c(c2c(C=NCc2ccccc2)c1O)CCCC3
**A:** label 0

**Q:** Determine whether measured pIC50 meets or exceeds 5 for COC(=O)c1ccc2c(c1)C(C)(C)C(/C=C/c1ccccc1O)=[N+]2C
**A:** label 0
